test system: SARS-CoV-2 S1 (aa16-685) (Wuhan) (SARS-CoV-2 (Wuhan), UniProt P0DTC2 16-685)
procedure details: sandwich ELISA: biotin NRCoV2-02 VHH capture, antigen titrated, VHH-Fc detector
Overview of reported SC50 across a group of binders:
Report the value in ng/mL with no unit label.

Some entries whose results are on file:
binder	parameter	result number
NRCoV2-1d VHH-Fc (Fc fusion, bivalent VHH-Fc) EVQLVESGGGSVQPGGSLRLSCAASGSTLDYYAIGWFRQAPGKEREWVSSVSSSDGNTLYADSVKGRFTISRDNAKNTVYLQMNSLKAEDTAVYVCAADYSMRPFAVGRWHRDYEYWGQGTQVTVSS	SC50	16
NRCoV2-11 VHH-Fc (Fc fusion, bivalent VHH-Fc) EVQLVSSGGGLVQPGGSLRLSCAASGSSLDSYSVSWFRQAPGKEREWISFISRYYSSTYYTDSVKGRFTTSRDGDQKTVHLQMNSLKPEDTAVYYCAARSRDFSSPFSATDTYTSWGQGTQVTVSS	SC50	6
NRCoV2-04 VHH-Fc (Fc fusion, bivalent VHH-Fc) AVQLVDSGGGLVQPGGSLRLSCAASGSPFSNVVMAWYRQAPGKQRERVAFISGGGIADYIMSVKGRFTISRDNAKNTVYLQMNSLKPEDTAVYYCWSSYESTWGQGTQVTVSS	SC50	25

q: For the binder NRCoV2-07 VHH-Fc (Fc fusion, bivalent VHH-Fc) QVQLVQSGGGLVQPGGSLRLSCAASGVTLDYYAIGWFRQAPGKEREAVSCISSNGRRNHYVASVRGRFTISRDNAKSTVYLQMNSLKPEDTAVYYCAAVQDVHGDNYYCTSPNEYNVWGQGTQVTVSS , what SC50 is on record?
a: 5
